Reference for the values: ChEMBL document CHEMBL4321878

experiment: Thermodynamic solubility of the compound in pH 7.4 phosphate buffered saline assessed per […] at 7 to 9 mg incubated for 24 hrs under shaking condition by HPLC analysis; type: physicochemical; conditions: in vitro, pH 7.4, 24 h
measurementName: Therm solubility

For this molecule ( C#CCN1CCC(/C=C\c2cccc(F)c2)CC1.Cl ), measured Therm solubility is ≥ 34.4 mg/mL

----------
molecular target: Amine oxidase [flavin-containing] A (Homo sapiens); settings: 20 min
Sequence (P21397 whole entry): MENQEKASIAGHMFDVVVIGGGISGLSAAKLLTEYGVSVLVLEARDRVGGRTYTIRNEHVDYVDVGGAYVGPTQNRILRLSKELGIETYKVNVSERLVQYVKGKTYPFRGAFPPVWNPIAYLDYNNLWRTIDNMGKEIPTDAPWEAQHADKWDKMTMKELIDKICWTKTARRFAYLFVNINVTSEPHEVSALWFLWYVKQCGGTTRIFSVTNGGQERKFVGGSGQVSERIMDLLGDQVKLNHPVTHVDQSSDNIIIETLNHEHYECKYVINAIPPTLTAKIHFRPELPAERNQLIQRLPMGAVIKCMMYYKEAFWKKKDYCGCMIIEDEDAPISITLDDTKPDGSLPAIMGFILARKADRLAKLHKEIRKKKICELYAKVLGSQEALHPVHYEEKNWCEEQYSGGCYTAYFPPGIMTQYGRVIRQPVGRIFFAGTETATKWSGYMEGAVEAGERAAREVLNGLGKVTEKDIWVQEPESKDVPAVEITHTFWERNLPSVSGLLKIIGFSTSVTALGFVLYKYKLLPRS
A collection of molecules and their measured activity at 100 µM
Number only, in %; omit the unit.

Past entries and their recorded results:
molecule | observedMeasurement
C#CCN1CCC(/C=C\c2ccc(C)cc2)CC1 | 62.2
C#CCN1CCCC(/C=C/c2ccc(F)cc2)C1 (racemic) | 91
C#CCN1CCC(/C=C/c2ccc(S(C)(=O)=O)cc2)CC1 | 68.7
C#CCN1CCC(CCc2ccc(OC)cc2)CC1 | 62.2
C#CCN1CCCC(CCc2cc(F)c(F)cc2F)C1 (racemic) | 86

For this molecule ( C#CCN1CCC(CCc2ccc(C(N)=O)cc2)CC1 ), measured activity at 100 µM is 75.1
